# Test target: purified ITK (Invitrogen PV3875) (Homo sapiens)
# Construct: purchased Invitrogen PV3875
# Assay: ITK peptide phosphorylation assay (Caliper LabChip or LCMS)
# Assay type: biochemical
# Reported conditions: Table 1, Examples 141-279
Quantity kind: log10(Ki) (log10 of the value in nM)
Plainly stated, the numbers are log10 of Ki given in nM.

In the examples that follow, each entry is paired with its recorded log10(Ki).
[[record]]
compound = "N#CCn1cc(NC(=O)c2n[nH]c3cc(-c4cn[nH]c4)ccc23)cn1"
quantity_kind = "log10(Ki)"
reported = 1.08

[[record]]
compound = "CNc1cc(-c2ccc3c(C(=O)Nc4cnn(Cc5ccccc5)c4)n[nH]c3c2)ncn1"
quantity_kind = "log10(Ki)"
reported = 2.61

[[record]]
compound = "CN1CCOc2cc(-c3ccc4c(C(=O)Nc5cnn(Cc6cccnc6)c5)n[nH]c4c3)cnc21"
quantity_kind = "log10(Ki)"
reported = 1.61

[[record]]
compound = "CN(CCC(c1ccccc1)n1cc(NC(=O)c2n[nH]c3ccccc23)cn1)S(C)(=O)=O (centres unmarked) [Example 271]"
quantity_kind = "log10(Ki)"
reported = 0.84

[[record]]
compound = "O=C(Nc1cnn(Cc2ccccc2)c1)c1n[nH]c2cc(-c3cnc4c(c3)CCCO4)ccc12"
quantity_kind = "log10(Ki)"
reported = 1.82


Please state log10(Ki) for every compound in the list that follows.
1. O=C(Nc1cnn(Cc2cncs2)c1)c1n[nH]c2cc(-c3cn[nH]c3)ccc12
2. N#Cc1cccc(Cn2cc(NC(=O)c3n[nH]c4cc(-c5cncs5)ccc34)cn2)c1
3. O=C(Nc1cnn(Cc2c[nH]cn2)c1)c1n[nH]c2cc(-c3cn[nH]c3)ccc12

Outgoing:
1. 0.06
2. 0.76
3. 0.89

* * *

# Test target: purified ITK (Invitrogen PV3875) (Homo sapiens, UniProt Q08881)
# Construct: purchased Invitrogen PV3875
# Assay: ITK peptide phosphorylation assay (Caliper LabChip or LCMS)
# Assay type: biochemical
# Reported conditions: Table 1, Examples 141-279
# Excerpt: The ability of purified ITK (Invitrogen PV3875) to catalyze peptide phosphorylation is monitored using a Caliper LabChip 3000 microfluidic unit (Caliper assay) or by liquid chromatography-mass spectrometry (LCMS) using a Waters Acquity system (LCMS assay). […] Non-phosphorylated substrate and phosphorylated product peptides are separated and quantified using a Caliper LabChip 3000 instrument. […]
Quantity kind: pKi
Numbers only, as −log10 of the molar value.

In the examples that follow, each entry is paired with its recorded pKi.
[[record]]
compound = "CN(C)CCC(c1ccccc1)n1cc(NC(=O)c2n[nH]c3ccccc23)cn1 (stereo not shown) [Example 267]"
quantity_kind = "pKi"
reported = 7.11

[[record]]
compound = "O=C(Nc1cnn(C2CCOc3ccccc32)c1)c1n[nH]c2cc(-c3cn[nH]c3)ccc12 (stereo not shown) [Example 185]"
quantity_kind = "pKi"
reported = 6.12

[[record]]
compound = "CN1CCC(c2ccc3c(C(=O)Nc4cnn(Cc5cccc(C#N)c5)c4)n[nH]c3c2)C1 (stereo not shown) [Example 188]"
quantity_kind = "pKi"
reported = 5.80


Would you kindly look at the next entry?
Incoming: Return value of pKi for input N#Cc1cccc(Cn2cc(NC(=O)c3n[nH]c4cc(-c5cncnc5)ccc34)cn2)c1 [Example 164] , no commentary.
Outgoing: 7.77

* * *

# Test target: purified ITK (Invitrogen PV3875) (Homo sapiens, UniProt Q08881)
# Construct: purchased Invitrogen PV3875
# Assay: ITK peptide phosphorylation assay (Caliper LabChip or LCMS)
# Type: biochemical
# Reported conditions: Table 1, Examples 141-279
Quantity kind: pKi
Give bare numbers, as −log10 of the molar value.

In the examples that follow, each entry is paired with its recorded pKi.
[[record]]
molecule = "O=C(Nc1cnn(CCC2CCCCC2)c1)c1n[nH]c2cc(-c3cn[nH]c3)ccc12"
reported = 8.12

[[record]]
molecule = "O=C(Nc1cnn(Cc2ccccc2)c1)c1n[nH]c2cc(-c3cncc(Cl)c3)ccc12"
reported = 8.03

[[record]]
molecule = "CN(C)CCC(c1ccccc1)n1cc(NC(=O)c2n[nH]c3ccccc23)cn1 (centres unmarked) [Example 268]"
reported = 8.22

[[record]]
molecule = "COC(=O)C(c1ccccc1)n1cc(NC(=O)c2n[nH]c3ccccc23)cn1 (centres unmarked)"
reported = 7.42

[[record]]
molecule = "N#Cc1cccc(Cn2cc(NC(=O)c3n[nH]c4ccc(NC5CCCCC5)cc34)cn2)c1"
reported = 7.37

[[record]]
molecule = "Cc1cc2c(C(=O)Nc3cnn(Cc4cccc(C#N)c4)c3)n[nH]c2cc1-c1cccnc1"
reported = 7.15

[[record]]
molecule = "N#Cc1cccc(Cn2cc(NC(=O)c3n[nH]c4cc(-n5ccnc5)ccc34)cn2)c1"
reported = 7.49


Would you kindly look at the next entry?
Incoming: Return value of pKi for input O=C(Nc1cnn(CC2CCOCC2)c1)c1n[nH]c2cc(-c3cn[nH]c3)ccc12 , no commentary.
Outgoing: 8.61

* * *

# Test target: purified ITK (Invitrogen PV3875) (Homo sapiens)
# Construct: purchased Invitrogen PV3875
# Sequence (Q08881 1-620): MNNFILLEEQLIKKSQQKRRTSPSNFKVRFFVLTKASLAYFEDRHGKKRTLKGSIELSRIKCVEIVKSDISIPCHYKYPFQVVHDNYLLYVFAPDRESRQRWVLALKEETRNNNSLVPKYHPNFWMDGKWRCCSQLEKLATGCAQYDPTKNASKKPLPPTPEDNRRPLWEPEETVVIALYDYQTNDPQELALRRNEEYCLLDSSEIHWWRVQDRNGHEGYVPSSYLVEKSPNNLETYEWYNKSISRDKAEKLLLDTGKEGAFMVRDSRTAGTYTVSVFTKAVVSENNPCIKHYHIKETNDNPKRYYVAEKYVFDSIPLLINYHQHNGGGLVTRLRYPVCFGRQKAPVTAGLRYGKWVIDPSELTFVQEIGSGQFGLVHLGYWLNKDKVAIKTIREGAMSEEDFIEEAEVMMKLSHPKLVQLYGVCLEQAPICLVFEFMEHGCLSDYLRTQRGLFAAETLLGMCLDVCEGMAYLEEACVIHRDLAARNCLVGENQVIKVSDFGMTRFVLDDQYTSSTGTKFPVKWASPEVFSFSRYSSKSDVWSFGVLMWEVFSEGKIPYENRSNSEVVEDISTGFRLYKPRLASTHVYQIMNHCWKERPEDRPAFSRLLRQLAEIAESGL
# Assay: ITK peptide phosphorylation assay (Caliper LabChip or LCMS)
# Assay type: biochemical
# Reported conditions: Table 1, Examples 141-279
Quantity kind: pKi
Answers are plain numbers, as −log10 of the molar value.

In the examples that follow, each entry is paired with its recorded pKi.
[[record]]
compound = "CCN(CC)CCn1cc(NC(=O)c2n[nH]c3cc(-c4cn[nH]c4)ccc23)cn1 [Example 171]"
reported = 8.10

[[record]]
compound = "O=C(Nc1cnn(CC2CCCO2)c1)c1n[nH]c2cc(-c3cn[nH]c3)ccc12 (centres unmarked) [Example 239]"
reported = 8.18

[[record]]
compound = "CC1(Cn2cc(NC(=O)c3n[nH]c4cc(-c5cn[nH]c5)ccc34)cn2)COC1 [Example 253]"
reported = 7.44


Please state pKi for every compound in the list that follows.
1. CN1CC(c2ccc3c(C(=O)Nc4cnn(Cc5cccc(C#N)c5)c4)n[nH]c3c2)C1 [Example 191]
2. CN(CCO)c1nc(Cn2cc(NC(=O)c3n[nH]c4cc(-c5cn[nH]c5)ccc34)cn2)cs1 [Example 141]
3. CN(C)CCC(c1ccccc1)n1cc(NC(=O)c2n[nH]c3cc(-c4cn[nH]c4)cnc23)cn1 (centres unmarked) [Example 279]
4. O=C(Nc1cnn(CC2CCC2)c1)c1n[nH]c2cc(-c3cn[nH]c3)ccc12 [Example 236]
5. N#Cc1ccc2c(C(=O)Nc3cnn(Cc4ccccc4)c3)n[nH]c2c1 [Example 206]

Outgoing:
[5.62, 8.55, 7.44, 8.22, 6.89]

* * *

# Test target: purified ITK (Invitrogen PV3875) (Homo sapiens)
# Construct: purchased Invitrogen PV3875
# Assay: ITK peptide phosphorylation assay (Caliper LabChip or LCMS)
# Type: biochemical
# Reported conditions: Table 1, Examples 141-279
Quantity kind: Ki (nM)
Numbers only, in nM.

In the examples that follow, each entry is paired with its recorded Ki.
[[record]]
molecule = "CCC(CC)Cn1cc(NC(=O)c2n[nH]c3cc(-c4cn[nH]c4)ccc23)cn1"
test_target = "purified ITK (Invitrogen PV3875) (Homo sapiens)"
quantity_kind = "Ki"
reported = 2.79

[[record]]
molecule = "O=C(Nc1cnn(CC2CCCCC2)c1)c1n[nH]c2cc(-c3cn[nH]c3)ccc12"
test_target = "purified ITK (Invitrogen PV3875) (Homo sapiens)"
quantity_kind = "Ki"
reported = 2.43

[[record]]
molecule = "O=C(Nc1cnn(Cc2ccccc2)c1)c1n[nH]c2cc(-c3cn[nH]c3)cnc12"
test_target = "purified ITK (Invitrogen PV3875) (Homo sapiens)"
quantity_kind = "Ki"
reported = 18.9


Would you kindly look at the next entry?
Incoming: Return value of Ki for input CC(CO)c1ccc2[nH]nc(C(=O)Nc3cnn(Cc4cccc(C#N)c4)c3)c2c1 (stereo not shown) [Example 187] , no commentary.
Outgoing: 7.8
